measurement.target: full-length beta-Catenin (Uniprot ID P35222) (Homo sapiens (Human)) (UniProt P35222)
protocol.summary: fluorescence polarization competition; 10 nM full-length beta-catenin, 10 nM 5FAM-TCF4(10-53) probe
pIC50: −log10 of the molar value. Starred links: 1 amine or outer side, 2 acyl side, 3 side chain; linkers in the order of their positions; H or OH if unused. Positions of bridges follow the written chain, without caps; N, C: chain ends. Non-standard residues stand in square brackets, D forms with d. Primed or numbered codes have the meaning given here. PyrS2″ = (S)-3-amino-1-((pent-4-en-1-yloxy)carbonyl)pyrrolidine-3-carboxylic acid (stapling residue), C=CCCCOC(=O)N1CC[C@@](N[*:1])(C(=O)[*:2])C1; B5(4) = 2,2-bis(4-pentenyl)glycine = 2-amino-2-(pent-4-en-1-yl)hept-6-enoic acid (stitching residue), C=CCCCC(CCCC=C)(N[*:1])C(=O)[*:2]; B5(5) = 2,2-bis(4-pentenyl)glycine, 2-amino-2-(pent-4-en-1-yl)hept-6-enoic acid (stitching residue), C=CCCCC(CCCC=C)(N[*:1])C(=O)[*:2]; PyrS2 = (S)-3-amino-1-((pent-4-en-1-yloxy)carbonyl)pyrrolidine-3-carboxylic acid, C=CCCCOC(=O)N1CC[C@@](N[*:1])(C(=O)[*:2])C1; 2COOHF = (S)-2-(2-amino-2-carboxyethyl)benzoic acid, O=C([C@H](Cc1ccccc1C(=O)[*:3])N[*:1])[*:2]; Phe(3-COOH) = N[C@@H](Cc1cccc(C(=O)O)c1)C(=O)O; 2F3MeF = Cc1cccc(C[C@H](N[*:1])C(=O)[*:2])c1F; Bta = N[C@@H](Cc1csc2ccccc12)C(=O)O; Lys(iPr) = CC(C)NCCCC[C@H](N)C(=O)O; αAllylPro = C=CC[C@@]1(C(=O)O)CCCN1; tBuAla = CC(C)(C)C[C@H](N)C(=O)O; 3Thi = N[C@@H](Cc1ccsc1)C(=O)O; Cha = N[C@@H](CC1CCCCC1)C(=O)O
Decision: pIC50 compared against 6; not below it gives Satisfied, below it gives Not satisfied.

Q: State whether the measured pIC50 reaches 6, counting equality as reaching it, for Ac-[αAllylPro]N[tBuAla][B5(5)]DQ[Lys(iPr)]AF[Cha][PyrS2]F[Bta]Q-NH2 (staple 1-4, 4-11) [I-1650]
A: Not satisfied

Q: State whether the measured pIC50 reaches 6, counting equality as reaching it, for Ac-[αAllylPro]D[tBuAla][B5(5)]D[2COOHF]AAFF[PyrS2″][2F3MeF][Bta]S-NH2 (staple 1-4, 4-11) [I-1659]
A: Satisfied

Q: State whether the measured pIC50 reaches 6, counting equality as reaching it, for Ac-[αAllylPro]D[tBuAla][B5(4)]D[Phe(3-COOH)]QAFL[PyrS2″][3Thi][Bta][tBuAla]-NH2 (staple 1-4, 4-11) [I-2192]
A: Satisfied

Q: State whether the measured pIC50 reaches 6, counting equality as reaching it, for Ac-[αAllylPro]N[tBuAla][B5(5)]DQ[Lys(iPr)]AFL[PyrS2″][Cha][Bta]Q-NH2 (staple 1-4, 4-11) [I-1651]
A: Not satisfied
